Cited source for all entries: patent US9353104B2

test_system: human PDE10A2 (Homo sapiens (Human), UniProt Q9Y233)
Sequence (Q9Y233 267-1055): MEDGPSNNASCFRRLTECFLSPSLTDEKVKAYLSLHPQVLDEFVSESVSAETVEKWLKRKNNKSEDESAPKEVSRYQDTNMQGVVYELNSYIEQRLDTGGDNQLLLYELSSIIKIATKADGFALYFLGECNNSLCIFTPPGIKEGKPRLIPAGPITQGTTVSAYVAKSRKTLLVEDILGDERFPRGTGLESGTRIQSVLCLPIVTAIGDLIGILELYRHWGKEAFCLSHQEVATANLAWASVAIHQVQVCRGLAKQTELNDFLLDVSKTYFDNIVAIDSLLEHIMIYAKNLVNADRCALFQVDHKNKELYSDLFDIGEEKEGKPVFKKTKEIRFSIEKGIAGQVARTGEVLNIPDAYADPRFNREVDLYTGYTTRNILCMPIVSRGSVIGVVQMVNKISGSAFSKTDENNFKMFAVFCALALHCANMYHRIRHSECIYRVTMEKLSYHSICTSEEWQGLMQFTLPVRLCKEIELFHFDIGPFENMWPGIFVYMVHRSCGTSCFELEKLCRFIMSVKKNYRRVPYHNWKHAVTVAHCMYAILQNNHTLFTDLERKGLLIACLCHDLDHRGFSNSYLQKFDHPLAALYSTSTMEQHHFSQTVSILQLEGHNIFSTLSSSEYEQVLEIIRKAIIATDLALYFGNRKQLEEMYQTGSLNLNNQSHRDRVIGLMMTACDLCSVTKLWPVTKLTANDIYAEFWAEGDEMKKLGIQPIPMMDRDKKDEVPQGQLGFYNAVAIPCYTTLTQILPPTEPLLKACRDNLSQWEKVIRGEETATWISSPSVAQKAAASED
assay_summary: PDE10 fluorescence polarization (IMAP FP) inhibition assay
condition_summary: human PDE10A2 lysate, FAM-labeled cAMP 50 nM, room temperature; read-out: PDE10A Ki
pKi: −log10 of the molar value.
endpoint: pKi

{"smi": "Cc1ccc([C@H]2C[C@@H]2COc2cc(NCc3nc(C)cs3)c(=O)n(C)n2)nc1", "test_system": "human PDE10A2 (Homo sapiens (Human), UniProt Q9Y233)", "pKi": 8.00}

[a] CCc1cc(CNc2cc(OC[C@H]3C[C@@H]3c3ccc(OC)cn3)nn(C)c2=O)n(C)n1
[b] COc1ccc([C@H]2C[C@@H]2COc2cc(NCc3ccc(C)nc3C)c(=O)n(C)n2)nc1
Query: Decide: a or b , by lowest recorded pKi. Your answer should be the label of the entry you select.
Result: a
(a: 10.24, b: 11.52)

[P] COc1ccc([C@H]2C[C@@H]2COc2cc(NCc3ccnn3C)c(=O)n(C)n2)nc1
[Q] Cn1ccc([C@H]2C[C@@H]2COc2cc(NCc3ccnn3C)c(=O)n(C)n2)n1
[R] COc1ccc([C@H]2C[C@@H]2COc2cc(NCc3nc(C)ccc3C)c(=O)n(C)n2)nc1
Query: # ascending order, key=pKi Response format: the labels, sorted as the prompt asks.
Result: R, Q, P
(R: 7.31, Q: 8.82, P: 9.72)

[I] Cn1cc(CNc2cc(OC[C@H]3C[C@@H]3c3ccc(F)cn3)nn(C)c2=O)cn1
[II] COc1ccc([C@H]2C[C@@H]2COc2cc(NCc3nc(C)ccc3F)c(=O)n(C)n2)nc1
Query: Higher pKi between I and II ? Kindly give the label for the entry you pick.
Result: I
(I: 8.90, II: 7.26)

[P] Cc1cnc(CNc2cc(OC[C@H]3C[C@@H]3c3nn(C)c4ccccc34)nn(C)c2=O)s1
[Q] Cc1cc(CNc2cc(OC[C@H]3C[C@@H]3c3ccn(C)n3)nn(C)c2=O)nn1C
Query: # argmax over pKi for candidates P and Q Please identify the chosen entry by its label.
Result: P
